# METHOD SUMMARY: Solubility in various aqueous PEG media, by HPLC (Example 2)
# EXPERIMENTAL CONDITIONS: aqueous with cosolvent or surfactant or cyclodextrin, kinetic from dmso stock, Average solubility, 30% PEG-20000, nominal 200 µM, N=3
EXPERIMENTAL READOUT: solubility at 1 day (µM)
Give a bare numeral; the unit µM is implied.

Request: Requested field: solubility at 1 day. Item: `c1ccc2c(c1)[nH]c1ccccc12`
Result: 188

###

# METHOD SUMMARY: Solubility in various aqueous PEG media, by HPLC (Example 2)
# EXPERIMENTAL CONDITIONS: aqueous with cosolvent or surfactant or cyclodextrin, kinetic from dmso stock, Average solubility, 20% PEG-400 + 10% PEG-8000, nominal 200 µM, N=3
EXPERIMENTAL READOUT: solubility at 1 day

Request: Requested field: solubility at 1 day. Item: `c1ccc2c(c1)[nH]c1ccccc12`
Result: 187 µM

###

# METHOD SUMMARY: Solubility in various aqueous PEG media, by HPLC (Example 2)
# EXPERIMENTAL CONDITIONS: aqueous with cosolvent or surfactant or cyclodextrin, kinetic from dmso stock, Average solubility, 30% PEG-8000, nominal 200 µM, N=3
EXPERIMENTAL READOUT: solubility at 1 day (µM)
Give a bare numeral; the unit µM is implied.

Request: Requested field: solubility at 1 day. Item: `c1ccc2c(c1)[nH]c1ccccc12`
Result: 194

Data provenance: patent EP1908513A1
